Reported IC50 is given for each of the following compounds.
- Measured On: PI3Kδ (p110δ/p85α) (Homo sapiens)
- Sequence (O00329 whole entry): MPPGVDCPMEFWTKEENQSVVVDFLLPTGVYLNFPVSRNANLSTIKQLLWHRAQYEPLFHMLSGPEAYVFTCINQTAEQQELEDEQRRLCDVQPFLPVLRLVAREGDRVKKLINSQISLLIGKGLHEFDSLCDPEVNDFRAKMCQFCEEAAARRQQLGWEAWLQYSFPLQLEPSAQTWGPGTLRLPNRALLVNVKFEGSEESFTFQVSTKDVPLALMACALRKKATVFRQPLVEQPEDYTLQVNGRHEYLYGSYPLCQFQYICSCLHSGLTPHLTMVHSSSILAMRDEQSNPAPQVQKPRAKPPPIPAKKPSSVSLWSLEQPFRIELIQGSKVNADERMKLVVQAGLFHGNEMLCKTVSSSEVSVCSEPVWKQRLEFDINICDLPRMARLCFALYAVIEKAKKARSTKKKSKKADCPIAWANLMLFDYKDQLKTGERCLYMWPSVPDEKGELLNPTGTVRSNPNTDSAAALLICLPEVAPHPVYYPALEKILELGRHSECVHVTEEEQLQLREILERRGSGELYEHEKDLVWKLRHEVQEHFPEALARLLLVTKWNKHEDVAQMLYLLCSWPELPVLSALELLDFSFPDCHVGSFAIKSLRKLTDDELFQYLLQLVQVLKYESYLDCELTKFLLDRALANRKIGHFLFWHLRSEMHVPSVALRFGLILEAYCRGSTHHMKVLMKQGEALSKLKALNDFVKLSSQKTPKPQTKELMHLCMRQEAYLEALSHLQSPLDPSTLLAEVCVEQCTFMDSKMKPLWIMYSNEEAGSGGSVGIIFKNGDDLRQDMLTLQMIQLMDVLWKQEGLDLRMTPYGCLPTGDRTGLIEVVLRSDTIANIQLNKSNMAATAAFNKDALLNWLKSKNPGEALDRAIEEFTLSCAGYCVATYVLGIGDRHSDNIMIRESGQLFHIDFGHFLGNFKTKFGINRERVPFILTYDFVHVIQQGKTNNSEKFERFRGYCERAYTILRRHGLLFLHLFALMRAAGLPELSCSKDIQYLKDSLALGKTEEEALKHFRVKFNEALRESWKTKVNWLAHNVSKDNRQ
- Sequence (P27986 whole entry partner): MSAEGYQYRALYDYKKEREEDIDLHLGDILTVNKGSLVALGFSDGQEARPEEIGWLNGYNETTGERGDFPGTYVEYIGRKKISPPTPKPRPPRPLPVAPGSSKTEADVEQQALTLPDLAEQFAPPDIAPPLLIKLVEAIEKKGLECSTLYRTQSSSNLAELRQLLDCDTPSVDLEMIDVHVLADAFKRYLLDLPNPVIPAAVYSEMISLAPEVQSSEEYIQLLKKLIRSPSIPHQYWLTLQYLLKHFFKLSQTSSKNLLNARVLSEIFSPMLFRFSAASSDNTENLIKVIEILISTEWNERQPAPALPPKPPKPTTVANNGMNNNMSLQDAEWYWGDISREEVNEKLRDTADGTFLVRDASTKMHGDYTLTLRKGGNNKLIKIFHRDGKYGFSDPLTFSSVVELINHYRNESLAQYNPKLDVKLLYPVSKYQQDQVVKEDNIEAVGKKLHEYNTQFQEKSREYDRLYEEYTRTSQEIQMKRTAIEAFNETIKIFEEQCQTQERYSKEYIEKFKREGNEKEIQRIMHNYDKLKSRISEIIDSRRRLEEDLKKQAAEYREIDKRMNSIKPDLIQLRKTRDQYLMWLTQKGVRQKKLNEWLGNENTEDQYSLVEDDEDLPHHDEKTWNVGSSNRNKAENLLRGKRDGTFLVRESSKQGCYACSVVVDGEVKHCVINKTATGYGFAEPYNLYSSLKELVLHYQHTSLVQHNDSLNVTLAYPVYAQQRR
- Test: PI3Kδ scintillation proximity assay (assay A)
- Stated Conditions: 20 μM PIP2, 20 μM ATP, 4 nM PI3Kδ, 210 minutes, room temperature

Compound	IC50
CC(Nc1ncnc2[nH]cnc12)c1cc(Cl)c2cncn2c1N1CCN(C(=O)c2cnn(C)c2)CC1 (stereo not shown) [Example 11]	< 50 nM
CC(Nc1ncnc2[nH]cnc12)c1cc(Cl)c2ccnn2c1-c1cccc(F)c1 (stereo not shown) [Example 26]	< 50 nM
CC(Nc1ncnc2[nH]cnc12)c1cc(Cl)c2cncn2c1N1CCN(C(=O)C2CC2)CC1 (stereo not shown) [Example 7]	< 50 nM
CC(=O)N1CCN(c2c(C(C)Nc3ncnc4[nH]cnc34)cc(Cl)c3cncn23)CC1 (stereo not shown) [Example 4]	< 50 nM

Ask: Could you share what IC50 was measured for CCN(CC)c1c(C(C)Nc2ncnc3[nH]cnc23)cc(Cl)c2cnc(C)n12 (stereo not shown) [Example 25] , tested on PI3Kδ (p110δ/p85α) (Homo sapiens)?
Result: < 50 nM

====

- Tested on: Pfeiffer cell line (diffuse large B cell lymphoma)
- Test: Pfeiffer cell proliferation assay
- Format: cell-based
- Stated Conditions: Homo sapiens, [3H]-thymidine incorporation after 3-4 days plus 12 hours
pIC50: −log10 of the molar value.
Entries and their pIC50

Molecule	Reported Metric	Observed Measurement
CC(Nc1ncnc2[nH]cnc12)c1cc(Cl)c2cncn2c1N1CC[C@@H](O)C1 (some centres unmarked)	pIC50	≥ 7.00
CC(Nc1ncnc2[nH]cnc12)c1cc(Cl)c2cncn2c1N1CCN(CC#N)CC1 (centres unmarked)	pIC50	6.00 to 6.30
COCCN1CCN(c2c(C(C)Nc3ncnc4[nH]cnc34)cc(Cl)c3cncn23)CC1 (centres unmarked)	pIC50	6.30 to 7.00

Ask: # get_value(readout='pIC50', item= CC(Nc1ncnc2[nH]cnc12)c1cc(F)c2ccnn2c1-c1cccc(F)c1 (centres unmarked) )
Result: ≥ 7.00

Ask: Endpoint output: pIC50 of CC(Nc1ncnc2[nH]cnc12)c1cc(Cl)c2cncn2c1N1CC[C@H](O)C1 (some centres unmarked) . Value?
Result: ≥ 7.00

Ask: Give the measured pIC50 of CC(Nc1ncnc2[nH]cnc12)c1cc(Cl)c2ccnn2c1-c1cccc(F)c1 (centres unmarked) .
Result: ≥ 7.00

Ask: Look up pIC50: CC(Nc1ncnc2[nH]cnc12)c1cc(Cl)c2cncn2c1-c1cccc(F)c1 (single isomer, unassigned) [1, isomer 1]
Result: ≥ 7.00

Ask: Fill in the blank: the reported pIC50 of CC(Nc1ncnc2[nH]cnc12)c1cc(Cl)c2cncn2c1N1CCN(C(=O)CC#N)CC1 (centres unmarked) is ____.
Result: < 5.52

====

- System: Pfeiffer cell line (diffuse large B cell lymphoma)
- Test: Pfeiffer cell proliferation assay
- Assay type: cell-based
- Stated Conditions: Homo sapiens, [3H]-thymidine incorporation after 3-4 days plus 12 hours
pIC50: −log10 of the molar value.
Reported Metric: pIC50

Record excerpt, results attached:
Compound	Measured On	pIC50
CC(Nc1ncnc2[nH]cnc12)c1cc(Cl)c2cncn2c1N1CCN(CC2CCCO2)CC1 (centres unmarked)	Pfeiffer cell line (diffuse large B cell lymphoma)	6.30 to 7.00
CC(=O)N1CCN(c2c(C(C)Nc3ncnc4[nH]cnc34)cc(Cl)c3cncn23)CC1 (centres unmarked)	Pfeiffer cell line (diffuse large B cell lymphoma)	6.00 to 6.30
CC(=O)N1CCN(c2c(C(C)Nc3ncnc4[nH]cnc34)cc(Br)c3cncn23)CC1 (centres unmarked) [Example 30, bis(trifluoroacetate)]	Pfeiffer cell line (diffuse large B cell lymphoma)	6.30 to 7.00
CC(Nc1ncnc2[nH]cnc12)c1cc(Cl)c2cncn2c1N1CCN(CCCC(F)(F)F)CC1 (centres unmarked)	Pfeiffer cell line (diffuse large B cell lymphoma)	≥ 7.00
CC(Nc1ncnc2[nH]cnc12)c1cc(Cl)c2cncn2c1N1CCN(C2CCC2)CC1 (centres unmarked)	Pfeiffer cell line (diffuse large B cell lymphoma)	≥ 7.00

Ask: Form entry - test system: Pfeiffer cell line (diffuse large B cell lymphoma); read-out: pIC50; compound: CC(Nc1ncnc2[nH]cnc12)c1cc(Cl)c2cncn2c1N1CCN(C(=O)c2cnn(C)c2)CC1 (centres unmarked)
Result: < 5.52

Ask: Record CO[C@@H]1CCN(c2c(C(C)Nc3ncnc4[nH]cnc34)cc(Cl)c3cncn23)C1 (some centres unmarked) : what is its pIC50 with Pfeiffer cell line (diffuse large B cell lymphoma)?
Result: ≥ 7.00

Ask: Return pIC50 measured with Pfeiffer cell line (diffuse large B cell lymphoma) given this compound: CC(Nc1ncnc2[nH]cnc12)c1cc(Cl)c2cncn2c1N1CCN(CC2CC2)CC1 (centres unmarked)
Result: 6.30 to 7.00

Ask: What reported pIC50 corresponds to COc1cccc(-c2c(C(C)Nc3ncnc4[nH]cnc34)cc(Cl)c3ccnn23)c1 (centres unmarked) on Pfeiffer cell line (diffuse large B cell lymphoma)?
Result: ≥ 7.00

Ask: # returns recorded pIC50 (system: Pfeiffer cell line (diffuse large B cell lymphoma)) for CCN(CC)c1c(C(C)Nc2ncnc3[nH]cnc23)cc(Cl)c2cnc(C)n12 (centres unmarked)
Result: 6.00 to 6.30

Ask: Return pIC50 measured with Pfeiffer cell line (diffuse large B cell lymphoma) given this compound: CCC(Nc1ncnc2[nH]cnc12)c1cc(Cl)c2cnc(C)n2c1-c1cc(F)cc(F)c1 (centres unmarked)
Result: 6.30 to 7.00

Ask: Fill in the recorded pIC50 for this compound, with Pfeiffer cell line (diffuse large B cell lymphoma) as test system: COCC(=O)N1CCN(c2c(C(C)Nc3ncnc4[nH]cnc34)cc(Cl)c3cncn23)CC1 (centres unmarked)
Result: < 5.52

Ask: Missing value: pIC50, Pfeiffer cell line (diffuse large B cell lymphoma), entry CC(Nc1ncnc2[nH]cnc12)c1cc(Cl)c2nccn2c1-c1cccc(F)c1 (centres unmarked) . Fill in?
Result: 5.52 to 6.00

Ask: Entry CC(=O)N1CCN(c2c(C(C)Nc3ncnc4[nH]cnc34)cc(C#N)c3cncn23)CC1 (centres unmarked) [Example 31, bis(trifluoroacetate)] , system Pfeiffer cell line (diffuse large B cell lymphoma): what pIC50 was measured?
Result: < 5.52

Ask: Give pIC50 (Pfeiffer cell line (diffuse large B cell lymphoma)) of the following compound: CC(Nc1ncnc2[nH]cnc12)c1cc(Cl)c2cncn2c1N1CCN(S(C)(=O)=O)CC1 (centres unmarked)
Result: < 5.52

Ask: API: value(readout=pIC50, system=Pfeiffer cell line (diffuse large B cell lymphoma)) for record CC(Nc1ncnc2[nH]cnc12)c1cc(Cl)c2cncn2c1N1CCN(C(=O)OC(C)(C)C)CC1 (centres unmarked)
Result: < 5.52

Ask: Identify the measured pIC50 of CC(Nc1ncnc2[nH]cnc12)c1cc(Cl)c2cncn2c1N1CCN(C(=O)C2CC2)CC1 (centres unmarked) for Pfeiffer cell line (diffuse large B cell lymphoma).
Result: 6.30 to 7.00

Ask: Provide the documented pIC50 with Pfeiffer cell line (diffuse large B cell lymphoma) as the system for CO[C@H]1CCN(c2c(C(C)Nc3ncnc4[nH]cnc34)cc(Cl)c3cncn23)C1 (some centres unmarked)
Result: ≥ 7.00

Ask: What is its pIC50 for Pfeiffer cell line (diffuse large B cell lymphoma)? Entry: Cc1ncc2c(Cl)cc(C(C)Nc3ncnc4[nH]cnc34)c(-c3cc(F)cc(F)c3)n12 (centres unmarked)
Result: ≥ 7.00

Ask: Form field: pIC50 recorded for CC(Nc1ncnc2[nH]cnc12)c1cc(F)c2cncn2c1-c1cccc(F)c1 (centres unmarked) with Pfeiffer cell line (diffuse large B cell lymphoma) (enter value)
Result: 6.00 to 6.30
